The reported numbers originate from patent US12617779B2.

Entries and their Residual rate
# assay_name: Evaluation of conversion rate to active form in buffer solution (Experimental Example 1)
# Format: physicochemical
# run_parameters: pH6.0, 0.5 hr, 37° C., 25 umol/L in buffer solution
Supply the numeric figure in %, leaving out any unit text.

molecule: CN1CC[C@H](c2c(OC(=O)N(C)C[C@@H]3CCCCN3)cc(O)c3c(=O)cc(-c4ccccc4Cl)oc23)[C@H](O)C1
Residual rate / %: 95.5
--
molecule: CN1CC[C@H](c2c(OC(=O)N(CCCC(F)(F)F)CC3CCCCN3)cc(O)c3c(=O)cc(-c4ccccc4Cl)oc23)[C@H](O)C1 (stereo partly drawn)
Residual rate / %: 49.7

Given CN1CC[C@H](c2c(OC(=O)N(CCF)CC3CCCCN3)cc(O)c3c(=O)cc(-c4ccccc4Cl)oc23)[C@H](O)C1 (stereo partly drawn) , state its recorded Residual rate.
76.0

----------
# assay_name: Evaluation of conversion rate to active form in buffer solution (Experimental Example 1)
# Type: physicochemical
# run_parameters: pH7.0, 1 hr, 37° C., 25 umol/L in buffer solution
Entries and their Production rate of Alvocidib
Supply the numeric figure in %, leaving out any unit text.

Known results for compounds:
compound: CC(C)N(CC1CCCCN1)C(=O)Oc1cc(O)c2c(=O)cc(-c3ccccc3Cl)oc2c1[C@H]1CCN(C)C[C@H]1O (stereo partly drawn)
scale_unit: %
reported_result: 40.0
//
compound: CCCN(CC1CCCCN1)C(=O)Oc1cc(O)c2c(=O)cc(-c3ccccc3Cl)oc2c1[C@H]1CCN(C)C[C@H]1O (stereo partly drawn)
scale_unit: %
reported_result: 42.0

Given CCNC(=O)Oc1cc(O)c2c(=O)cc(-c3ccccc3Cl)oc2c1[C@H]1CCN(C)C[C@H]1O [Comparative Example 1, reference compound] , state its recorded Production rate of Alvocidib.
99.1

Same read-out for CCN(CCC1CCCCN1)C(=O)Oc1cc(O)c2c(=O)cc(-c3ccccc3Cl)oc2c1[C@H]1CCN(C)C[C@H]1O (stereo partly drawn) ?
50.2

Same read-out for CN1CC[C@H](c2c(OC(=O)N(CCC(F)(F)F)CC3CCCCN3)cc(O)c3c(=O)cc(-c4ccccc4Cl)oc23)[C@H](O)C1 (stereo partly drawn) ?
65.9

Same read-out for CN1CC[C@H](c2c(OC(=O)N(Cc3ccccc3)CC3CCCCN3)cc(O)c3c(=O)cc(-c4ccccc4Cl)oc23)[C@H](O)C1 (stereo partly drawn) ?
56.9

----------
# assay_name: Evaluation of conversion rate to active form in buffer solution (Experimental Example 1)
# Type: physicochemical
# run_parameters: pH7.0, 0.5 hr
# Method: For Examples 1 to 16 and Comparative Examples 1 to 14, the attrition rate of the test compound and the conversion rate of the test compound to Alvocidib in a buffer solution were calculated by the following method. Examples 1 to 16 and Comparative Examples 1 to 14 were each left in buffer solutions adjusted to pH 5.0, 5.5, 6.0, 6.5, 7.0 and 7.4, respectively, at a concentration of 25 umol/L at 37° C. […]
measurement_type: Production rate of Alvocidib
# answer = value followed by unit

compound: CCNC(=O)O[C@@H]1CN(C)CC[C@@H]1c1c(O)cc(O)c2c(=O)cc(-c3ccccc3Cl)oc12 [Comparative Example 4, reference compound]
measurement_type: Production rate of Alvocidib
reported_result: 1.8%

compound: CN1CC[C@H](c2c(O)cc(O)c3c(=O)cc(-c4ccccc4Cl)oc23)[C@H](OC(=O)CN)C1 [Comparative Example 8, reference compound]
measurement_type: Production rate of Alvocidib
reported_result: 35.4%

compound: CN1CC[C@H](c2c(OC(=O)N(C)CCN)cc(O)c3c(=O)cc(-c4ccccc4Cl)oc23)[C@H](O)C1 [Comparative Example 13, reference compound]
measurement_type: Production rate of Alvocidib
reported_result: 82.2%

Here is another compound to look at.
Given CCOC(=O)O[C@@H]1CN(C)CC[C@@H]1c1c(O)cc(O)c2c(=O)cc(-c3ccccc3Cl)oc12 [Comparative Example 3, reference compound] , state its recorded Production rate of Alvocidib.
1.2%

----------
# assay_name: Evaluation of conversion rate to active form in buffer solution (Experimental Example 1)
# Format: physicochemical
# run_parameters: pH7.0, 0 hr, 37° C., 25 umol/L in buffer solution
Entries and their Residual rate
Supply the numeric figure in %, leaving out any unit text.

Given CCCN(C[C@@H]1CCCCN1)C(=O)Oc1cc(O)c2c(=O)cc(-c3ccccc3Cl)oc2c1[C@H]1CCN(C)C[C@H]1O [Example 5] , state its recorded Residual rate.
98.4

Same read-out for CCCN(C[C@H]1CCCCN1)C(=O)Oc1cc(O)c2c(=O)cc(-c3ccccc3Cl)oc2c1[C@H]1CCN(C)C[C@H]1O [Example 6] ?
99.3

Same read-out for CCCN(CC1CCCCN1)C(=O)Oc1cc(O)c2c(=O)cc(-c3ccccc3Cl)oc2c1[C@H]1CCN(C)C[C@H]1O (stereo partly drawn) [Example 9] ?
95.4

----------
# assay_name: Stability evaluation of solution formulation (Experimental Example 2)
# Type: physicochemical
# run_parameters: solution formulation, pH5.0, 2 week
Threshold check on Production rate of Alvocidib: at or above 2% gives condition met, strictly below gives condition not met.

Field: example entries. Status: answers known.
molecule: CCN(C[C@H]1CCCCN1)C(=O)Oc1cc(O)c2c(=O)cc(-c3ccccc3Cl)oc2c1[C@H]1CCN(C)C[C@H]1O
assigned_label: condition not met
//
molecule: CCCN(C[C@H]1CCCCN1)C(=O)Oc1cc(O)c2c(=O)cc(-c3ccccc3Cl)oc2c1[C@H]1CCN(C)C[C@H]1O
assigned_label: condition met
//
molecule: CCN(C[C@@H]1CCCCN1)C(=O)Oc1cc(O)c2c(=O)cc(-c3ccccc3Cl)oc2c1[C@H]1CCN(C)C[C@H]1O [Example 1, ditrifluoroacetate]
assigned_label: condition not met

Does the molecule CCCN(C[C@@H]1CCCCN1)C(=O)Oc1cc(O)c2c(=O)cc(-c3ccccc3Cl)oc2c1[C@H]1CCN(C)C[C@H]1O have recorded Production rate of Alvocidib that is 2% or more?
condition met

Same read-out for CN1CC[C@H](c2c(OC(=O)N(C)CCN)cc(O)c3c(=O)cc(-c4ccccc4Cl)oc23)[C@H](O)C1 [Comparative Example 13, reference compound] ?
condition met

Same read-out for CNCCN(C)C(=O)Oc1cc(O)c2c(=O)cc(-c3ccccc3Cl)oc2c1[C@H]1CCN(C)C[C@H]1O [Comparative Example 14, reference compound] ?
condition met

----------
# assay_name: Evaluation of conversion rate to active form in buffer solution (Experimental Example 1)
# Type: physicochemical
# run_parameters: pH5.0, 0 hr, 37° C., 25 umol/L in buffer solution
measurement_type: Production rate of Alvocidib (%)
Supply the numeric figure in %, leaving out any unit text.

compound: COCCN(CC1CCCCN1)C(=O)Oc1cc(O)c2c(=O)cc(-c3ccccc3Cl)oc2c1[C@H]1CCN(C)C[C@H]1O (some centres unmarked)
Production rate of Alvocidib / %: 0.5
//
compound: CC(C)N(CC1CCCCN1)C(=O)Oc1cc(O)c2c(=O)cc(-c3ccccc3Cl)oc2c1[C@H]1CCN(C)C[C@H]1O (some centres unmarked)
Production rate of Alvocidib / %: 1.6
//
compound: CN1CC[C@H](c2c(OC(=O)N(CCC(F)(F)F)CC3CCCCN3)cc(O)c3c(=O)cc(-c4ccccc4Cl)oc23)[C@H](O)C1 (some centres unmarked)
Production rate of Alvocidib / %: 2.1
//
compound: CCCN(C[C@@H]1CCCCN1)C(=O)Oc1cc(O)c2c(=O)cc(-c3ccccc3Cl)oc2c1[C@H]1CCN(C)C[C@H]1O
Production rate of Alvocidib / %: 0.0
//
compound: CCN(C[C@H]1CCCCN1)C(=O)Oc1cc(O)c2c(=O)cc(-c3ccccc3Cl)oc2c1[C@H]1CCN(C)C[C@H]1O
Production rate of Alvocidib / %: 0.0
//
compound: CCCN(C[C@H]1CCCCN1)C(=O)Oc1cc(O)c2c(=O)cc(-c3ccccc3Cl)oc2c1[C@H]1CCN(C)C[C@H]1O
Production rate of Alvocidib / %: 0.5
//
compound: CN1CC[C@H](c2c(OC(=O)N(C)CC3CCCCN3)cc(O)c3c(=O)cc(-c4ccccc4Cl)oc23)[C@H](O)C1 (some centres unmarked)
Production rate of Alvocidib / %: 0.7
//
compound: CN1CC[C@H](c2c(OC(=O)N(C)C[C@@H]3CCCCN3)cc(O)c3c(=O)cc(-c4ccccc4Cl)oc23)[C@H](O)C1
Production rate of Alvocidib / %: 0.2

Given CCN(CCC1CCCCN1)C(=O)Oc1cc(O)c2c(=O)cc(-c3ccccc3Cl)oc2c1[C@H]1CCN(C)C[C@H]1O (some centres unmarked) , state its recorded Production rate of Alvocidib.
0.0

Same read-out for CN1CC[C@H](c2c(OC(=O)N(Cc3ccccc3)CC3CCCCN3)cc(O)c3c(=O)cc(-c4ccccc4Cl)oc23)[C@H](O)C1 (some centres unmarked) ?
1.4

Same read-out for CN1CC[C@H](c2c(OC(=O)N(C)C[C@H]3CCCCN3)cc(O)c3c(=O)cc(-c4ccccc4Cl)oc23)[C@H](O)C1 ?
0.5
